# measurement.target: Androgen receptor (Homo sapiens)
# assay.text: qHTS assay to identify small molecule antagonists of the androgen receptor (AR) signaling pathway using the MDA cell line in the presence of 0.5 nM R1881 (AID 1259243); further: nearly all actives have a fitted effect of over 50% in size
# condition.summary: MDA-kb2 MMTV-luciferase, R1881 0.5 nM, 16 h; series mostly up to 42.5 µM
Records with an inconclusive call do not appear. Active and inactive are the calls of the source. The call rests on the fitted dose curve; in most records, active means well fitted inhibition curve with a large enough effect in the repeat runs; inconclusive means weak or mixed curves; inactive means no such curve, though single readings can be large or run the other way.
Outcome codes: 1 = active, -1 = inactive

molecule: Cc1coc2ccccc2c1=O
assigned.category: -1

molecule: Nc1c2c(nc3c1CCC3)CCCC2
assigned.category: -1

molecule: CC(=O)N[C@H]1[C@H]([C@H](O)[C@H](O)CO)OC(C(=O)O)=C[C@@H]1N=C(N)N
assigned.category: -1

molecule: CC(=O)O[C@@]12CO[C@@H]1C[C@H](O)[C@@]1(C)C(=O)[C@H](O)C3=C(C)[C@@H](OC(=O)[C@H](O)[C@@H](NC(=O)OC(C)(C)C)c4ccccc4)C[C@@](O)([C@@H](OC(=O)c4ccccc4)[C@H]21)C3(C)C
assigned.category: -1

molecule: C=C(C)C(=O)OCC(O)CO (stereo not drawn)
assigned.category: -1

molecule: O=S(=O)(O)c1cc(O)c(O)c(S(=O)(=O)O)c1
assigned.category: -1

molecule: COC(=O)Nc1ccc(Cl)c(Cl)c1
assigned.category: 1

molecule: CC(=O)N1C[C@H](O)C[C@H]1C(=O)O
assigned.category: -1

molecule: CCCOC(=O)CC
assigned.category: -1

molecule: CC1CCC(CO)CC1 (stereo not drawn)
assigned.category: -1

molecule: CC(C)(C)c1ccc(-c2ccc(C(C)(C)C)cc2)cc1
assigned.category: -1

molecule: CCCCCCCC1CCCC1=O (stereo not drawn)
assigned.category: -1

molecule: C=C[Si](OC(C)=O)(OC(C)=O)OC(C)=O
assigned.category: -1

molecule: O=[N+]([O-])c1cncn1CCN1CCOCC1
assigned.category: -1

molecule: CC1=NN(c2cccc(S(=O)(=O)O)c2)C(=O)C1
assigned.category: -1

molecule: CCCCCC(C)N (stereo not drawn)
assigned.category: -1

molecule: CCOC(=O)C(=O)CCCCCCl
assigned.category: -1

molecule: O=C(O)CCSCCC(=O)O
assigned.category: -1

====

# assay.text: qHTS assay for small molecule activators of the heat shock response signaling pathway (AID 743210);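 further: HeLa cells with beta-lactamase reporter driven by heat shock elements; on the % scale 0 is the no-effect control and ±100 the full control effect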
# condition.summary: HeLa HSE-bla reporter, beta-lactamase ratio, 5 h; series mostly up to 62.6 µM
Records with an inconclusive call do not appear. Activity calls are given as the source filed them. The call rests on the fitted dose curve; in most records, active means well fitted activation curve with a large enough effect in the signal ratio in the repeat runs, with a control signal flat (not every such curve was filed as active); inconclusive means weak or mixed curves; inactive means flat fitted curve, though single readings scatter; the % refers to the signal ratio.
endpoint.name: activation

compound: C1CCC2=NCCCN2CC1
endpoint.name: activation
measured.result: inactive
//
compound: CC(N)C12CC3CC(CC(C3)C1)C2 (centres undefined)
endpoint.name: activation
measured.result: inactive
//
compound: CN1CCC(=C2c3ccccc3CCc3cccnc32)CC1
endpoint.name: activation
measured.result: inactive
//
compound: Cc1nc(C2CCCCC2)c(-c2ccc(S(N)(=O)=O)c(F)c2)o1
endpoint.name: activation
measured.result: inactive
//
compound: O=C(O)CCSCCC(=O)O
endpoint.name: activation
measured.result: inactive
//
compound: CCN1C=CN(C)C1C (centres undefined)
endpoint.name: activation
measured.result: inactive
//
compound: Clc1cc(Cl)cc(Cl)c1
endpoint.name: activation
measured.result: inactive
//
compound: CCCCCCCCCCCCCCCCCCO
endpoint.name: activation
measured.result: inactive
//
compound: c1ccc(Cc2ccccc2)cc1
endpoint.name: activation
measured.result: inactive
//
compound: CCO[Si](OCC)(OCC)c1ccccc1
endpoint.name: activation
measured.result: inactive
//
compound: CC(=O)C1CCCCC1=O (centres undefined)
endpoint.name: activation
measured.result: inactive
//
compound: c1ccc2sc(SN3CCOCC3)nc2c1
endpoint.name: activation
measured.result: inactive
//
compound: CC(C)COC(=O)c1ccc(N)cc1
endpoint.name: activation
measured.result: inactive
//
compound: CC1CCC(CO)CC1 (centres undefined)
endpoint.name: activation
measured.result: inactive
//
compound: CC(C)(N)C#N
endpoint.name: activation
measured.result: inactive
//
compound: CO[Si](C)(OC)c1ccccc1
endpoint.name: activation
measured.result: inactive
//
compound: C=CCCC(=O)O
endpoint.name: activation
measured.result: inactive
//
compound: CNCC(O)c1ccc(O)c(O)c1 (centres undefined)
endpoint.name: activation
measured.result: inactive
//
compound: CCN(CC#N)c1cccc(C)c1
endpoint.name: activation
measured.result: inactive
//
compound: CCN1CCOCC1
endpoint.name: activation
measured.result: inactive
//
compound: CCOC(=O)c1ccccc1
endpoint.name: activation
measured.result: inactive
//
compound: Cc1ccc(-c2ncc(Cl)cc2-c2ccc(S(C)(=O)=O)cc2)cn1
endpoint.name: activation
measured.result: inactive
//
compound: CCCCCCC#CC(=O)OC
endpoint.name: activation
measured.result: inactive
//
compound: CCCn1cc[n+](C)c1C
endpoint.name: activation
measured.result: inactive
//
compound: CCC(=O)OCc1ccccc1
endpoint.name: activation
measured.result: inactive
//
compound: CCOc1ccc2nc(S(N)(=O)=O)sc2c1
endpoint.name: activation
measured.result: inactive
//
compound: NC(=O)Cc1cccc2ccccc12
endpoint.name: activation
measured.result: inactive
//
compound: Clc1cc(Cl)c(Cl)nc1Cl
endpoint.name: activation
measured.result: inactive
//
compound: O=C(O)c1cc(C(=O)O)cc(C(=O)O)c1
endpoint.name: activation
measured.result: inactive

====

# measurement.target: Cytochrome P450 1A2 (Homo sapiens) (UniProt P05177)
# Sequence (P05177 whole entry, looked up): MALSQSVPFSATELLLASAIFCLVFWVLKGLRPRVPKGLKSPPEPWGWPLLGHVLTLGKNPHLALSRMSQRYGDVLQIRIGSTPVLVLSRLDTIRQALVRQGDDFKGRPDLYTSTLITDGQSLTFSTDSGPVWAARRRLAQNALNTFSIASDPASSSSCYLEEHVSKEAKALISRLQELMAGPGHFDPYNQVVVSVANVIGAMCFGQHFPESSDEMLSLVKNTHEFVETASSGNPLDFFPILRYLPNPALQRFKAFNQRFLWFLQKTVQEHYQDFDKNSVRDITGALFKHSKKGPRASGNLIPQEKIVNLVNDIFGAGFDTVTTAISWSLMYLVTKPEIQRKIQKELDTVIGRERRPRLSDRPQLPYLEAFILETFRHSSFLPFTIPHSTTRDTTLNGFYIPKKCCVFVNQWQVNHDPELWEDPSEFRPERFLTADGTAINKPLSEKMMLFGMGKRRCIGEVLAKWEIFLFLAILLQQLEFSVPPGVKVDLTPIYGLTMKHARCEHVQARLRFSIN
# assay.text: Cytochrome P450 Family 1 Subfamily A Member 2 (CYP1A2) small molecule antagonists: luciferase reporter qHTS assay (AID 1671199); further: on the % scale 0 is the no-effect control and ±100 the full control effect; nearly all actives have a fitted effect of over 50% in size
# condition.summary: P450-Glo CYP1A2 enzyme, luciferin luminescence, 1 h; series mostly up to 53 µM
Results filed as inconclusive are left out. Calls of active or inactive are those of the source. Calls come from the whole dose curve; as a rule, active = well fitted inhibition curve with a large enough effect in the repeat runs; inconclusive = weak or mixed curves; inactive = no such curve, though single readings can be large or run the other way.
endpoint.name: outcome

compound: COCCOCC(OC)OC
measured.result: inactive

compound: OCCCCCO
measured.result: inactive

compound: CO[C@@]1(NC(=O)C(C(=O)O)c2ccc(O)cc2)C(=O)N2C(C(=O)O)=C(CSc3nnnn3C)CO[C@@H]21 (stereo not given in full)
measured.result: inactive

compound: CCCCc1ccc2c(n1)[C@@H](c1ccc(OC)cc1C[C@H](C)C(=O)O)[C@H](C(=O)O)[C@H]2c1ccc2c(c1)OCO2
measured.result: inactive

compound: Nc1ccn([C@@H]2O[C@H](CO)[C@@H](O)[C@@H]2O)c(=O)n1
measured.result: inactive

====

# measurement.target: Nuclear receptor subfamily 1 group I member 2 (Homo sapiens)
# assay.text: Human pregnane X receptor (PXR) small molecule agonists, qHTS assay (AID 1346982); further: nearly all actives have a fitted effect of over 35% in size; on activation: on the % scale 0 is the no-effect control and ±100 the full control effect
# condition.summary: PXR-Luc HepG2, CYP3A4 luciferase reporter, 24 h; series mostly up to 92.4 µM
Records with an inconclusive call do not appear. Activity calls are given as the source filed them. Calls follow the shape of the dose curve; as a rule, active = well fitted activation curve with a large enough effect in the repeat runs; inconclusive = weak or mixed curves; inactive = no such curve, though single readings can be large or run the other way.
Outcomes: active, inactive

compound: CC(C)CCCO
measurement.target: Nuclear receptor subfamily 1 group I member 2 (Homo sapiens)
assigned.category: inactive
--
compound: CC(=O)Nc1ccc(OCC(O)CNC(C)C)cc1 (centres undefined)
measurement.target: Nuclear receptor subfamily 1 group I member 2 (Homo sapiens)
assigned.category: inactive
--
compound: C[C@@H]1CCC[C@H](C)N1
measurement.target: Nuclear receptor subfamily 1 group I member 2 (Homo sapiens)
assigned.category: inactive
--
compound: CCC(=O)OCc1ccccc1
measurement.target: Nuclear receptor subfamily 1 group I member 2 (Homo sapiens)
assigned.category: inactive
--
compound: CC(C)CC(C)(N)C#N (centres undefined)
measurement.target: Nuclear receptor subfamily 1 group I member 2 (Homo sapiens)
assigned.category: inactive
--
compound: CC(=O)Oc1cccc(C)c1
measurement.target: Nuclear receptor subfamily 1 group I member 2 (Homo sapiens)
assigned.category: inactive
--
compound: CC(C)[C@H]1CC[C@@H](C)CC1=O
measurement.target: Nuclear receptor subfamily 1 group I member 2 (Homo sapiens)
assigned.category: inactive
--
compound: Clc1cc(Cl)cc(Cl)c1
measurement.target: Nuclear receptor subfamily 1 group I member 2 (Homo sapiens)
assigned.category: inactive
--
compound: O=C(c1ccccc1)C1(O)CCCCC1
measurement.target: Nuclear receptor subfamily 1 group I member 2 (Homo sapiens)
assigned.category: inactive
--
compound: O=C(CO)[C@@H](O)[C@H](O)[C@H](O)CO
measurement.target: Nuclear receptor subfamily 1 group I member 2 (Homo sapiens)
assigned.category: inactive
--
compound: CN1C(C)(C)CC(O)CC1(C)C
measurement.target: Nuclear receptor subfamily 1 group I member 2 (Homo sapiens)
assigned.category: inactive
--
compound: COc1cc(C(=O)NCc2ccc(OCCN(C)C)cc2)cc(OC)c1OC
measurement.target: Nuclear receptor subfamily 1 group I member 2 (Homo sapiens)
assigned.category: inactive
--
compound: Cc1nc2ccc(CN(C)c3ccc(C(=O)N[C@@H](CCC(=O)O)C(=O)O)s3)cc2c(=O)[nH]1
measurement.target: Nuclear receptor subfamily 1 group I member 2 (Homo sapiens)
assigned.category: inactive
--
compound: O=C1c2ccccc2C(=O)c2cc(O)ccc21
measurement.target: Nuclear receptor subfamily 1 group I member 2 (Homo sapiens)
assigned.category: active
